- study_target: EGFR (ErbB1) T790M L858R (Homo sapiens, UniProt P00533, L858R/T790M)
- Construct: purchased Invitrogen
- Sequence (P00533 25-1210 T790M/L858R): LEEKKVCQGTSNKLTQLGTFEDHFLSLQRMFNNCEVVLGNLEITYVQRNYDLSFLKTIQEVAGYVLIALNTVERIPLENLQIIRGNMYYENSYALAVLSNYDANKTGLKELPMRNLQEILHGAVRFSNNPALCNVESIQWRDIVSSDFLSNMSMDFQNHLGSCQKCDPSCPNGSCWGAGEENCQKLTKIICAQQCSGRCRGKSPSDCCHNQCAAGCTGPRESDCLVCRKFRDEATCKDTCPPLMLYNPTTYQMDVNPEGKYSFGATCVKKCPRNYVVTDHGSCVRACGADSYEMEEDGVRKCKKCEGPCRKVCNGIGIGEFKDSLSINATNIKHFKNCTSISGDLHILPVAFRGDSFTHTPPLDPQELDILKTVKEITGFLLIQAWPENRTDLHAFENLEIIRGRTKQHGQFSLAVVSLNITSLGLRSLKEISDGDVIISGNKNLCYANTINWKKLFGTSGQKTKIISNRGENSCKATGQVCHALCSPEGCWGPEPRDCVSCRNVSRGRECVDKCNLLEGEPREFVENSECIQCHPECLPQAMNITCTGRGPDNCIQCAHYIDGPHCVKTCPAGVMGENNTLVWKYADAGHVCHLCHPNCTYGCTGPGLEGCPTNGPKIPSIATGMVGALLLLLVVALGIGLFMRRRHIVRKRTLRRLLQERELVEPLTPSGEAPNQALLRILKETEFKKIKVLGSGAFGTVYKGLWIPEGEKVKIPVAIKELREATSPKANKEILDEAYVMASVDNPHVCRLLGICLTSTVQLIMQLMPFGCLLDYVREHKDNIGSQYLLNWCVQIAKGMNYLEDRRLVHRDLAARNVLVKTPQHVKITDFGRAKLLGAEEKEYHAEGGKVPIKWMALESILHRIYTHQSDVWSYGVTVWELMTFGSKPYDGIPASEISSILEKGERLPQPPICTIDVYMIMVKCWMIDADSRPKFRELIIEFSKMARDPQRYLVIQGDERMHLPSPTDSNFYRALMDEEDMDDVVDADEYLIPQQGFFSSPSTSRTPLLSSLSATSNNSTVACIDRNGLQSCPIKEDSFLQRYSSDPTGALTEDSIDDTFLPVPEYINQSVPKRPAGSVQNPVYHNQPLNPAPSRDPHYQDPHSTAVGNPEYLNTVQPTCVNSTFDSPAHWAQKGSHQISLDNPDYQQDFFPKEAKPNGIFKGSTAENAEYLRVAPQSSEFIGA
- protocol_description: Z'-LYTE kinase inhibition assay (Invitrogen), EGFR L858R/T790M
- Assay type: biochemical
- conditions: compound at 13.7 nM; 10 μM of ATP
assay_metric: inhibition at 0.0137 µM

[[record]]
smiles_entry = "C=CC(=O)Nc1cc(Nc2ncc3cccc(-c4ccncc4)c3n2)ccc1N(C)CCN(C)C"
assay_metric = "inhibition at 0.0137 µM"
test_value = "< 50%"

[[record]]
smiles_entry = "C=CC(=O)Nc1cc(Nc2ncc3cccc(-c4cccc(Cl)c4)c3n2)ccc1OCCN(C)C"
assay_metric = "inhibition at 0.0137 µM"
test_value = "> 50%"

[[record]]
smiles_entry = "C=CC(=O)Nc1cc(Nc2ncc3cccc(Br)c3n2)ccc1N(C)CCN(C)C"
assay_metric = "inhibition at 0.0137 µM"
test_value = "< 50%"

[[record]]
smiles_entry = "C=CC(=O)Nc1cc(Nc2ncc3cccc(-c4cccnc4)c3n2)ccc1N(C)CCN(C)C"
assay_metric = "inhibition at 0.0137 µM"
test_value = "< 50%"

[[record]]
smiles_entry = "C=CC(=O)Nc1cc(Nc2ncc3cccc(-c4cccc(Cl)c4)c3n2)ccc1OCCOC"
assay_metric = "inhibition at 0.0137 µM"
test_value = "< 50%"

[[record]]
smiles_entry = "C=CC(=O)Nc1cc(Nc2ncc3cccc(-c4cccc(Cl)c4)c3n2)ccc1N1CCN(C)CC1"
assay_metric = "inhibition at 0.0137 µM"
test_value = "< 50%"

[[record]]
smiles_entry = "C=CC(=O)Nc1cc(Nc2ncc3cccc(-c4ccccc4Cl)c3n2)ccc1OCCN(C)C"
assay_metric = "inhibition at 0.0137 µM"
test_value = "< 50%"


// switching to the query compound
[in] GET /values?readout=inhibition at 0.0137 µM&item= C=CC(=O)Nc1cc(Nc2ncc3cccc(-c4cccc(Cl)c4)c3n2)ccc1OC1CCN(C)CC1
[out] > 50%
